system: Rattus norvegicus; assay: The compound was examined for circling behavior (marginal activity) using automated videotracking system 30 min after intraperitoneal injection at the dose of 40 mg/Kg in 12 rats; assay type: functional
TEST_READOUT: Absolute turn angular/3 min
Give a plain numeric answer without units written out.

Can you share its Absolute turn angular/3 min? I mean this compound: C=CCOc1ccc2c(c1)C13CCCCC1C(C2)N(C)CC3 (stereo not given)
219

Query COc1ccc2c(c1)C13CCCCC1C(C2)N(C)CC3 (stereo not drawn) [RACEMETHORPHAN] next
265

Same again, this time with CN1CCC23CCCCC2C1Cc1ccc(OCC2CC2)cc13 (stereo not given)
202

What would you report for Oc1ccc2c(c1)C13CCCCC1C(C2)NCC3 (stereo not given) ?
262

// repeat for C=CCOc1ccc2c(c1)C13CCCCC1C(C2)NCC3 (stereo not given) and report
184

Lookup CN1CC[C@]23CCCC[C@H]2[C@H]1Cc1ccc(O)cc13
384

Then what about the compound C=CCN1CCC23CCCCC2C1Cc1ccc(OCC2CC2)cc13 (stereo not given) ?
242

Next entry: C=CCN1CCC23CCCCC2C1Cc1ccc(OC)cc13 (stereo not given)
282

Then C=CCOc1ccc2c(c1)C13CCCCC1C(C2)N(CC1CC1)CC3 (stereo not given) ?
250

// query: COc1ccc2c(c1)C13CCCCC1C(C2)NCC3 (stereo not given)
258

###

tested on: Rattus norvegicus; test: The compound was tested for anticonvulsive activity expressed as seizure score after 4 hr of injection of kainic acid (10 mg/kg) and the drug at the dose of 40 mg/Kg in 15 rats; format: functional
TEST_READOUT: Seizure score
Give the figure by itself; no unit, no explanation.

If you can, please state the reported Seizure score value of C=CCOc1ccc2c(c1)C13CCCCC1C(C2)N(C)CC3 (stereo not given) .
1.5

Lookup COc1ccc2c(c1)C13CCCCC1C(C2)N(C)CC3 (stereo not drawn) [RACEMETHORPHAN]
1.4

Can you check C=CCOc1ccc2c(c1)C13CCCCC1C(C2)N(CC1CC1)CC3 (stereo not given) next?
2

Here is the next molecule: C=CCOc1ccc2c(c1)C13CCCCC1C(C2)NCC3 (stereo not given)
1

Quick one: COc1ccc2c(c1)C13CCCCC1C(C2)NCC3 (stereo not given)
2

Now this one: C=CCN1CCC23CCCCC2C1Cc1ccc(OCC2CC2)cc13 (stereo not given)
2.2

Request: C=CCN1CCC23CCCCC2C1Cc1ccc(OC)cc13 (stereo not given)
2.2

Next record, please: CN1CC[C@]23CCCC[C@H]2[C@H]1Cc1ccc(O)cc13 [LEVORPHANOL]
1.8

Then what about the molecule CN1CCC23CCCCC2C1Cc1ccc(OCC2CC2)cc13 (stereo not given) ?
1.3

Okay, and Oc1ccc2c(c1)C13CCCCC1C(C2)NCC3 (stereo not given) ?
2.1
